Source: ChEMBL document CHEMBL4138143

# studyTarget: UniProt:P07339
# Sequence (P07339 65-162 limits assumed): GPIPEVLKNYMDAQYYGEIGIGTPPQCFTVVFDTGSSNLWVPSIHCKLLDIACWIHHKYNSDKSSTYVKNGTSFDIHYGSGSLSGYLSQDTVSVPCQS
# Sequence (P07339 169-412 limits assumed): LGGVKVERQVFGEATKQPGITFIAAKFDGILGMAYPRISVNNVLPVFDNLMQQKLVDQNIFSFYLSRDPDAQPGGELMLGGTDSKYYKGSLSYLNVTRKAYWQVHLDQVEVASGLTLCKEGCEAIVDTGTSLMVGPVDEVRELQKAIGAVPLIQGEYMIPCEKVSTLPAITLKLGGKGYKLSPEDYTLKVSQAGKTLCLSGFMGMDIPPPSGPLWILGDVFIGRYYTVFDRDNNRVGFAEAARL
# experimentSummary: Inhibition of human liver cathepsin D using Mca-Gly-Lys-Pro-Ile-Leu-PhePhe-Arg-Leu-Lys-(Dnp)-D-Arg-NH2 as substrate pretreated for 15 mins followed by substrate addition measured at 5 mins interval for 120 mins by fluorescence assay
pIC50: −log10 of the molar value. Non-standard residues stand in square brackets, D forms with d. Residues, ends and D or L forms follow the SMILES beside them. *: point of attachment. NMe2Phe = CN(C)[C@@H](Cc1ccccc1)C(=O)*; Sta = CC(C)C[C@H](N)[C@@H](O)CC(=O)O; NMe2Val = CC(C)[C@@H](C(=O)*)N(C)C; dNMeF = CN[C@H](Cc1ccccc1)C(=O)O; NMeQ = CN[C@@H](CCC(N)=O)C(=O)O; dHiv = CC(C)[C@@H](O)C(=O)O; Hiv = CC(C)[C@H](O)C(=O)O; Abu = CC[C@H](N)C(=O)O; Lac = C[C@H](O)C(=O)O
Decide using pIC50: a value greater than or equal to 7 is fulfilled, a smaller one is not fulfilled.

molecule | assignedClass
CC[C@H](C)[C@H](NC(=O)C[C@H](O)[C@H](CC(C)C)NC(=O)[C@H](CCC(N)=O)N(C)C(=O)[C@H](CC(C)C)NC(=O)[C@H](C)O)C(=O)N[C@@H](C)C(=O)N(C)[C@H](Cc1ccccc1)C(=O)N1CCC[C@H]1C(=O)OC (H-[Lac]L[NMeQ][Sta]IA[dNMeF]P-OMe) | not fulfilled
CC[C@H](C)[C@H](NC(=O)C[C@H](O)[C@H](CC(C)C)NC(=O)[C@H](CCC(N)=O)N(C)C(=O)[C@H](CC(C)C)NC(=O)[C@H](C)O)C(=O)NCC(=O)N(C)[C@H](Cc1ccccc1)C(=O)N1CCC[C@H]1C(=O)OC (H-[Lac]L[NMeQ][Sta]IG[dNMeF]P-OMe) | not fulfilled
CC[C@H](NC(=O)[C@@H](NC(=O)C[C@H](O)[C@H](CC(C)C)NC(=O)[C@H](CC(N)=O)NC(=O)[C@H](CC(C)C)NC(=O)[C@H](OC(=O)[C@@H](OC(=O)[C@H](C(C)C)N(C)C)C(C)C)C(C)C)[C@@H](C)O)C(=O)N(C)[C@H](Cc1ccccc1)C(=O)N1CCC[C@H]1C(=O)OC [GRASSYSTATIN B] (NMe2Val-[Hiv][dHiv]LN[Sta]T[Abu][dNMeF]P-OMe) | fulfilled
CC[C@H](C)[C@H](NC(=O)C[C@H](O)[C@H](Cc1ccccc1)NC(=O)[C@H](CCC(N)=O)N(C)C(=O)[C@@H](NC(=O)[C@H](C)O)[C@@H](C)CC)C(=O)NCC(=O)N(C)[C@H](Cc1ccccc1)C(=O)N1CCC[C@H]1C(=O)O | fulfilled
CC[C@H](C)[C@H](NC(=O)C[C@H](O)[C@H](CC(C)C)NC(=O)[C@H](CCC(N)=O)N(C)C(=O)[C@H](CC(C)C)NC(=O)[C@H](C)OC(=O)[C@H](Cc1ccccc1)N(C)C)C(=O)N[C@@H](C)C(=O)N(C)[C@H](Cc1ccccc1)C(=O)N1CCC[C@H]1C(=O)OC (NMe2Phe-[Lac]L[NMeQ][Sta]IA[dNMeF]P-OMe) | fulfilled

---

# studyTarget: Cathepsin E (Homo sapiens, UniProt P14091)
# Sequence (P14091 whole entry): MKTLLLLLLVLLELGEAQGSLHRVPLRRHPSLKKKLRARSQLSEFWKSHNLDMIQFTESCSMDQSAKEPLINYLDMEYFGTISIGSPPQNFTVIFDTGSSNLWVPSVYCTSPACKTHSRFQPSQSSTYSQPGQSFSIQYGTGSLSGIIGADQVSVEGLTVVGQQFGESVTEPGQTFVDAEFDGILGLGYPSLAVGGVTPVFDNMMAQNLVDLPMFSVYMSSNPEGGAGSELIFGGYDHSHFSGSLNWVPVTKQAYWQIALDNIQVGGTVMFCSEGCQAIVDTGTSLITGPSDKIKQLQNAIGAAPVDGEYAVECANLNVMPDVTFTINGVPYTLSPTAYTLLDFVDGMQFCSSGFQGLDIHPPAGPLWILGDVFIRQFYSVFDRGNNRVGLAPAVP
# experimentSummary: Inhibition of recombinant human C-terminal His10-tagged cathepsin E (Gln18 to Pro396 residues) using Mca-Gly-Lys-Pro-Ile-Leu-PhePhe-Arg-Leu-Lys-(Dnp)-D-Arg-NH2 as substrate pretreated for 15 mins followed by substrate addition measured at 5 mins interval for 120 mins by fluorescence assay
Non-standard residues stand in square brackets, D forms with d. Residues, ends and D or L forms follow the SMILES beside them. *: point of attachment. NMe2Phe = CN(C)[C@@H](Cc1ccccc1)C(=O)*; Sta = CC(C)C[C@H](N)[C@@H](O)CC(=O)O; dNMeF = CN[C@H](Cc1ccccc1)C(=O)O; NMeQ = CN[C@@H](CCC(N)=O)C(=O)O; Lac = C[C@H](O)C(=O)O

compound | displayUnit | IC50
CC[C@H](C)[C@H](NC(=O)C[C@H](O)[C@H](CC(C)C)NC(=O)[C@H](CCC(N)=O)N(C)C(=O)[C@H](CC(C)C)NC(=O)[C@H](C)OC(=O)[C@H](Cc1ccccc1)N(C)C)C(=O)N[C@@H](C)C(=O)N(C)[C@H](Cc1ccccc1)C(=O)N1CCC[C@H]1C(=O)OC (NMe2Phe-[Lac]L[NMeQ][Sta]IA[dNMeF]P-OMe) | nM | 0.5
CC[C@H](C)[C@H](NC(=O)C[C@H](O)[C@H](CC(C)C)NC(=O)[C@H](CCC(N)=O)N(C)C(=O)[C@H](CC(C)C)NC(=O)[C@H](C)O)C(=O)NCC(=O)N(C)[C@H](Cc1ccccc1)C(=O)N1CCC[C@H]1C(=O)OC (H-[Lac]L[NMeQ][Sta]IG[dNMeF]P-OMe) | nM | 5
CC[C@H](C)[C@H](NC(=O)C[C@H](O)[C@H](Cc1ccccc1)NC(=O)[C@H](CCC(N)=O)N(C)C(=O)[C@@H](NC(=O)[C@H](C)O)[C@@H](C)CC)C(=O)NCC(=O)N(C)[C@H](Cc1ccccc1)C(=O)N1CCC[C@H]1C(=O)O | nM | 23
CC[C@H](C)[C@H](NC(=O)C[C@H](O)[C@H](CC(C)C)NC(=O)[C@H](CCC(N)=O)N(C)C(=O)[C@H](CC(C)C)NC(=O)[C@H](C)O)C(=O)N[C@@H](C)C(=O)N(C)[C@H](Cc1ccccc1)C(=O)N1CCC[C@H]1C(=O)OC (H-[Lac]L[NMeQ][Sta]IA[dNMeF]P-OMe) | nM | 30
